Data credit: the supplement of paper PMC6897291

# System: U-2932
# run description: growth inhibition by drug plus 177Lu-lilotomab satetraxetan (1 - RLU/untreated control) (fraction); higher = stronger inhibition
# setup conditions: 1000 nM; time (day): 4; 177Lu-lilotomab satetraxetan 1 ug/ml
measurement type: growth inhibition by drug plus 177Lu-lilotomab satetraxetan
API note: the answer field is a bare number with no unit suffix.

Check out these entries, answers already filled in.
compound: CC[C@@H](C(=O)[C@@H](C)[C@@H](O)[C@H](C)[C@@H]1O[C@@H]([C@@H](CC)C(=O)O)CC[C@@H]1C)[C@H]1O[C@]2(C=C[C@@H](O)[C@]3(CC[C@@](C)([C@H]4CC[C@](O)(CC)[C@H](C)O4)O3)O2)[C@H](C)C[C@@H]1C
result number: 0.516

compound: CCC1(c2ccc(N)cc2)CCC(=O)NC1=O (stereo not drawn) [Aminoglutethimide (Cytadren)]
result number: 0.0339

compound: O=C(O)c1nn(Cc2ccc(Cl)cc2Cl)c2ccccc12
result number: 0.147

# ---- query compound ----
input: Which growth inhibition by drug plus 177Lu-lilotomab satetraxetan is reported for this compound? C=C1C[C@@H]2[C@H](CC[C@]3(C)C(=O)CC[C@@H]23)[C@@]2(C)C=CC(=O)C=C12
output: 0.0549

----------
# System: U-2932
# run description: growth inhibition by drug alone (1 - RLU/untreated control) (fraction); higher = stronger inhibition
# setup conditions: 10 nM; time (day): 4; 177Lu-lilotomab satetraxetan 0 ug/ml
measurement type: growth inhibition by drug alone

Example molecules with recorded growth inhibition by drug alone:
molecule: CC[C@@H](C(=O)[C@@H](C)[C@@H](O)[C@H](C)[C@@H]1O[C@@H]([C@@H](CC)C(=O)O)CC[C@@H]1C)[C@H]1O[C@]2(C=C[C@@H](O)[C@]3(CC[C@@](C)([C@H]4CC[C@](O)(CC)[C@H](C)O4)O3)O2)[C@H](C)C[C@@H]1C
growth inhibition by drug alone: 0.115

molecule: N[C@@H](Cc1ccc(N(CCCl)CCCl)cc1)C(=O)O
growth inhibition by drug alone: 0.0447

input: Any idea what growth inhibition by drug alone was measured for CCC1(c2ccc(N)cc2)CCC(=O)NC1=O (centres undefined) [Aminoglutethimide (Cytadren)] ?
output: -0.0299

input: Could you do the same for Cc1ccccc1-n1c(Cn2cnc3c(N)ncnc32)nc2cccc(C)c2c1=O , please?
output: 0.000763

----------
# System: U-2932
# run description: growth inhibition by drug alone (1 - RLU/untreated control) (fraction); higher = stronger inhibition
# setup conditions: 10 nM; time (day): 6; 177Lu-lilotomab satetraxetan 0 ug/ml
measurement type: growth inhibition by drug alone
Kindly provide the number alone.

given smiles: CC[C@@H](C(=O)[C@@H](C)[C@@H](O)[C@H](C)[C@@H]1O[C@@H]([C@@H](CC)C(=O)O)CC[C@@H]1C)[C@H]1O[C@]2(C=C[C@@H](O)[C@]3(CC[C@@](C)([C@H]4CC[C@](O)(CC)[C@H](C)O4)O3)O2)[C@H](C)C[C@@H]1C
growth inhibition by drug alone: -0.0492
//
given smiles: O=C(Oc1ccc([N+](=O)[O-])cc1)N1CCC(C(O)(c2ccc3c(c2)OCO3)c2ccc3c(c2)OCO3)CC1
growth inhibition by drug alone: -0.105

input: Look up growth inhibition by drug alone for this compound: Cc1ccccc1-n1c(Cn2cnc3c(N)ncnc32)nc2cccc(C)c2c1=O
output: 0.0686

input: What would you report for O=C(O)c1nn(Cc2ccc(Cl)cc2Cl)c2ccccc12 ?
output: -0.13
